Quick reference for recombinant UMI read abundance (log10) among some sequences
PROTOCOL SUMMARY: recombinant UMI read abundance after kanamycin selection (control-corrected) (log10(CPM+1)); higher = more efficient recombination; extreme values may be limits of the assay; sequences stand for … in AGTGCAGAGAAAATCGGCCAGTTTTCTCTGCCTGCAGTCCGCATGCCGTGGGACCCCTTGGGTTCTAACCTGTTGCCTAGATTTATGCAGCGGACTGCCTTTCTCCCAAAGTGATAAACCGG…AGGTTGGTTTCACT; site = the 11-nt donor

RECORD SEQUENCE | recombinant UMI read abundance (log10)
TGAGGCTCATGGACCGGTTTTCCCGGTAATCCGTATTTGGT (site TGAGGCTCTAC) | 1.76
CCTAGGTCATGGACCGGTTTTCCCGGTAATCCGTATTTGAA (site CCTAGGTCTTT) | 0.213
TACCCCTCATGGACCGGTTTTCCCGGTAATCCGTATTTGGC (site TACCCCTCTGC) | 3.09
GGGCCGGCATGGACCGGTTTTCCCGGTAATCCGTATTTGGC (site AGGCCGGCTGC) | 0
GGAGACACATGGACCGGTTTTCCCGGTAATCCGTATTTGTC (site GGAGACACTGA) | 2.59
GTTCATGCATGGACCGGTTTTCCCGGTAATCCGTATTTGGT (site GTGCATGCTAC) | 0.477
GGGAAGACATGGACCGGTTTTCCCGGTAATCCGTATTTGGC (site GGGAAGACTGC) | 1.57
GGTACTCCATGGACCGGTTTTCCCGGTAATCCGTATTTGTA (site GGTACTCCTTA) | 0.301

* * *

PROTOCOL SUMMARY: recombinant UMI read abundance after kanamycin selection (control-corrected) (log10(CPM+1)); higher = more efficient recombination; extreme values may be limits of the assay; sequences stand for … in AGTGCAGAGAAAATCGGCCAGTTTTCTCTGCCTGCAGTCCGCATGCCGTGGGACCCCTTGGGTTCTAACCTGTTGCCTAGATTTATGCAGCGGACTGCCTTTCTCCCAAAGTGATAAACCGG…AGGTTGGTTTCACT; site = the 11-nt donor

RECORD SEQUENCE | recombinant UMI read abundance (log10)
AAGTAACCATGGACCGGTTTTCCCGGTAATCCGTATTTGGA (site AAGTAACCTTC) | 0.105
CCTGCCGCATGGACCGGTTTTCCCGGTAATCCGTATTTGCC (site CCTGCCGCTGG) | 0
AGGACGACATGGACCGGTTTTCCCGGTAATCCGTATTTGGA (site AGGACGACTTC) | 0.813
CTGAACCCATGGACCGGTTTTCCCGGTAATCCGTATTTGTT (site CGGAATCCTAA) | 0.0138
ACACTGGCATGGACCGGTTTTCCCGGTAATCCGTATTTGAG (site ACACTGGCTCT) | 1.38
CCCTATCCATGGACCGGTTTTCCCGGTAATCCGTATTTGCC (site CCCTAGCCTGG) | 0
CGGTATCCATGGACCGGTTTTCCCGGTAATCCGTATTTGTT (site CGGAATCCTAA) | 0
TATGCGACATGGACCGGTTTTCCCGGTAATCCGTATTTGCT (site TATGCGACTAG) | 1.27

* * *

PROTOCOL SUMMARY: recombinant barcode read abundance after kanamycin selection (control-corrected) (log10(CPM+1)); higher = more efficient recombination; sequences stand for … in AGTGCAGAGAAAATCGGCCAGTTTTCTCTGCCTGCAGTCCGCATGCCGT…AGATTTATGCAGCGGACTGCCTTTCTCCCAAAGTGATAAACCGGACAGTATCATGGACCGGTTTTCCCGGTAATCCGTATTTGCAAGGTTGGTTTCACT; site = the 11-nt target
Could you label it T if measured recombinant barcode read abundance (log10) is 0.8 or higher, and F otherwise?

RECORD SEQUENCE | DISCRETE LABEL
CTGCTACCTTGGGTTCTAACCTGTTGCCT (site CGGCTACCTAG) | F
GTTTGACCTTGGGTTCTAACCTGTTGCTT (site GTTTGGCCTAA) | F
CTTTAGTCTTGGGTTCTAACCTGTTGCTA (site AAAGGTCCTCT) | F
TACCACTCTTGGGTTCTAACCTGTTGCCT (site AACCACTCTAG) | F
GCGTCCACTTGGGTTCTAACCTGTTGCTA (site GCGTGCCCTTA) | F
TAAAGAGCTTGGGTTCTAACCTGTTGCGG (site TAAAGAGCTCC) | T

* * *

PROTOCOL SUMMARY: recombinant UMI read abundance after kanamycin selection (control-corrected) (log10(CPM+1)); higher = more efficient recombination; extreme values may be limits of the assay; sequences stand for … in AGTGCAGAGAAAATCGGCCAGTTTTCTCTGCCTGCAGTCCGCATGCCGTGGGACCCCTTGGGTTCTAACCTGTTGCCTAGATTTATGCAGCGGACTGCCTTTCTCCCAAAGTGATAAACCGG…AGGTTGGTTTCACT; site = the 11-nt donor
Each entry below carries its recorded recombinant UMI read abundance (log10).

RECORD SEQUENCE | recombinant UMI read abundance (log10)
ATATCGGCATGGACCGGTTTTCCCGGTAATCCGTATTTGGT (site ATATCGGCTAC) | 0.889
CTCATATCATGGACCGGTTTTCCCGGTAATCCGTATTTGTC (site CCCATATCTGA) | 0.718
CTGGAAACATGGACCGGTTTTCCCGGTAATCCGTATTTGCA (site GTGGAAACTTG) | 0.00967
GGCAACCCATGGACCGGTTTTCCCGGTAATCCGTATTTGGA (site GGCAACCCTTC) | 0.0138
CACTTGGCATGGACCGGTTTTCCCGGTAATCCGTATTTGGT (site CACTTGGCTAC) | 1.79
CCGGCATCATGGACCGGTTTTCCCGGTAATCCGTATTTGCG (site CCGGCATCTCG) | 0
CACGATTCATGGACCGGTTTTCCCGGTAATCCGTATTTGCC (site CACGATTCTGG) | 2.11
GGGGAACCATGGACCGGTTTTCCCGGTAATCCGTATTTGAT (site TGGGAACCTAT) | 0
ATACATGCATGGACCGGTTTTCCCGGTAATCCGTATTTGCT (site ATACATGCTAG) | 2.75
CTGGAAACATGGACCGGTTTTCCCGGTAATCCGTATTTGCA (site CTGGGAACTTG) | 0.596
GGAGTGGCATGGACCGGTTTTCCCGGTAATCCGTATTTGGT (site GGGGTGGCTAC) | 0.0193
CGCTTGGCATGGACCGGTTTTCCCGGTAATCCGTATTTGGA (site CTCTTGGCTTC) | 0.00767
AGCTCAGCATGGACCGGTTTTCCCGGTAATCCGTATTTGGG (site AGCTCAGCTTC) | 0.0127
CCTATGTCATGGACCGGTTTTCCCGGTAATCCGTATTTGTC (site CCTATGTCTGA) | 0
GTGTAGGCATGGACCGGTTTTCCCGGTAATCCGTATTTGGC (site CTGTAGGCTGC) | 1.99
TAGCAAGCATGGACCGGTTTTCCCGGTAATCCGTATTTGAA (site TAGCGAGCTTT) | 0.00665
GCGTAGCCATGGACCGGTTTTCCCGGTAATCCGTATTTGGG (site GCGCAGCCTCC) | 0.00818
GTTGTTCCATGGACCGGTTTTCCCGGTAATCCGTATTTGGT (site GTTTTTCCTAC) | 0
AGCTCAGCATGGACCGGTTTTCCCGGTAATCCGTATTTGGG (site AGCACAGCTCC) | 0.212
TTGGCGGCATGGACCGGTTTTCCCGGTAATCCGTATTTGCT (site TTGGCGGCTAG) | 1.44
TGCCGTTCATGGACCGGTTTTCCCGGTAATCCGTATTTGAT (site TGCCGTTCTAT) | 0
TAGGTACCATGGACCGGTTTTCCCGGTAATCCGTATTTGTT (site TAGGTACCTAA) | 0.0119
GGAACATCATGGACCGGTTTTCCCGGTAATCCGTATTTGCT (site CGATCATCTAG) | 0

* * *

Known recombinant UMI read abundance (log10) of a selection of sequences
PROTOCOL SUMMARY: recombinant UMI read abundance after kanamycin selection (control-corrected) (log10(CPM+1)); higher = more efficient recombination; extreme values may be limits of the assay; sequences stand for … in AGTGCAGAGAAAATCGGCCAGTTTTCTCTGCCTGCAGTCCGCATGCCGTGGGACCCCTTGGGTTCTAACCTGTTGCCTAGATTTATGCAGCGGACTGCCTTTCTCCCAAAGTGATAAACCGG…AGGTTGGTTTCACT; site = the 11-nt donor

RECORD SEQUENCE | recombinant UMI read abundance (log10)
CTTGTAGCATGGACCGGTTTTCCCGGTAATCCGTATTTGTC (site CTTGTAGCTGA) | 0.797
CCTAAAGCATGGACCGGTTTTCCCGGTAATCCGTATTTGGA (site CCTAAAGCTTC) | 0.0116
CAAAACACATGGACCGGTTTTCCCGGTAATCCGTATTTGCC (site CAAAACACTGG) | 0
GCGGAGCCATGGACCGGTTTTCCCGGTAATCCGTATTTGGG (site GCGGAGCCTCC) | 0.0323
GGGCTCACATGGACCGGTTTTCCCGGTAATCCGTATTTGAT (site GTGCTCACTAT) | 1.11
GTGATTCCATGGACCGGTTTTCCCGGTAATCCGTATTTGGT (site GTGATTCCTAC) | 0.318
CTAGTATCATGGACCGGTTTTCCCGGTAATCCGTATTTGAT (site CTAGTATCTCT) | 0.557
CGTTTGGCATGGACCGGTTTTCCCGGTAATCCGTATTTGCC (site CGTTTGGCTCG) | 0.0176
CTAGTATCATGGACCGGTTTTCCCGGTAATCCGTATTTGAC (site CAAGTATCTCT) | 0.473
TACCCATCATGGACCGGTTTTCCCGGTAATCCGTATTTGAG (site TACCCATCTCT) | 0.374
TTGAGAACATGGACCGGTTTTCCCGGTAATCCGTATTTGCC (site TTGAGAACTGG) | 1.36
CGTTCATCATGGACCGGTTTTCCCGGTAATCCGTATTTGCC (site CGTTCATCTGG) | 2.32
AAGCACGCATGGACCGGTTTTCCCGGTAATCCGTATTTGGT (site AAGCACGCTAC) | 1.48
CACGCGCCATGGACCGGTTTTCCCGGTAATCCGTATTTGTG (site CAGGCGCCTCA) | 0.056
CAGTGGACATGGACCGGTTTTCCCGGTAATCCGTATTTGGG (site CAGTTGACTCC) | 0.0125
GGTCCAACATGGACCGGTTTTCCCGGTAATCCGTATTTGAA (site GGTCCAACTTC) | 0.00549
CGTCTCTCATGGACCGGTTTTCCCGGTAATCCGTATTTGTA (site CATCTCTCTTA) | 1.13
CCTAGAGCATGGACCGGTTTTCCCGGTAATCCGTATTTGAT (site CCTACAGCTAT) | 0.00404
TGCTAGGCATGGACCGGTTTTCCCGGTAATCCGTATTTGGG (site TGCTAGGCTAC) | 0.0327
TTCACTACATGGACCGGTTTTCCCGGTAATCCGTATTTGAG (site TTCACTACTCT) | 0.00204
GGCCAACCATGGACCGGTTTTCCCGGTAATCCGTATTTGTT (site GGCCACCCTAA) | 0.0125
GGTGCATCATGGACCGGTTTTCCCGGTAATCCGTATTTGCT (site GGTGCATCTAG) | 1.92
GCTAAAACATGGACCGGTTTTCCCGGTAATCCGTATTTGCT (site GCAAAAACTAG) | 0
TACCGTCCATGGACCGGTTTTCCCGGTAATCCGTATTTGAT (site GACCGTCCTAT) | 0.00523
GGGCACCCATGGACCGGTTTTCCCGGTAATCCGTATTTGTT (site GGGCACCCTAA) | 0.325
AGGAAGGCATGGACCGGTTTTCCCGGTAATCCGTATTTGCT (site AGGAAGACTTG) | 0.296
CGGGACCCATGGACCGGTTTTCCCGGTAATCCGTATTTGAT (site CGGGATCCTAT) | 0
ATCTATACATGGACCGGTTTTCCCGGTAATCCGTATTTGAC (site ACCTATACTGT) | 0.944
AAGGGGTCATGGACCGGTTTTCCCGGTAATCCGTATTTGAT (site AAGGGGTCTAT) | 2.94
CCTAATACATGGACCGGTTTTCCCGGTAATCCGTATTTGGC (site CCTAATACTTC) | 0.00574
TCTTCCCCATGGACCGGTTTTCCCGGTAATCCGTATTTGTA (site TGTTCCCCTTA) | 0.00596
CTATCATCATGGACCGGTTTTCCCGGTAATCCGTATTTGCG (site CTATCATCTCG) | 1.87
AGGGAGCCATGGACCGGTTTTCCCGGTAATCCGTATTTGCC (site AGGGAGCCTGG) | 0
